assay: NCI Yeast Anticancer Drug Screen. Data for the bub3 strain (AID 167); details: S. cerevisiae bub3 mutant strain, at 50.0 µM, active compounds read high
The panel holds about 79,000 compounds, 15% with a hit somewhere; the sample as a whole holds those more often.
Quantity Name: growth inhibition (%)
The answer is to be given in %; state only the numeric part.

A selection of reference data follows.
O=C(Oc1c(I)ccccc1=O)c1ccc([N+](=O)[O-])cc1 | 99
C1CCC(C2=NC3CCCCC3SC2)CC1 (centres undefined) | 92.1
CN(C)CCOC(=O)c1ccccc1 | 37.2

Record CC(CO)CCC(=O)C(C)C1C(=O)CC2CC3CC(O)CCC3(C)CC21C (centres undefined) . Reported growth inhibition: 63.6

Record CN(/N=C/C(O)C(O)C(O)CO)c1ccccc1 (centres undefined) . Reported growth inhibition: 98.5

Record `Fc1ccc2nncc(SCc3ccccc3)c2c1` . Reported growth inhibition: 97

Record `CC(=O)N(N)c1ccccc1` . Reported growth inhibition: 87.8

Record `CN(C)c1ccc(/C=C/c2ccnc3ccccc23)c(O)c1` . Reported growth inhibition: 40.9

----------
Measured growth inhibition by item
Assay: NCI Yeast Anticancer Drug Screen. Data for the sgs1 mgt1 strain (AID 161);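 also: 0% = growth of cultures given vehicle only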
Details: S. cerevisiae sgs1 mgt1 strain, at 5.0 µM (retest, dose inferred, filed as 0.5), active compounds read high
Method: Growth inhibition of yeast strains with defined genetic alterations is measured as a screen for potential anti-cancer activity. Selected strains with alterations in DNA damage repair or cell cycle control were exposed to compounds and growth inhibition was measured relative to vehicle treated controls. The strain used in this assay is sgs1 mgt1
The panel holds about 79,000 compounds, 15% with a hit somewhere; the sample as a whole holds those more often.
The answer is to be given in %; state only the numeric part.

A selection of reference data follows.
Clc1ccc(OCC(Cn2ccnc2)c2ccc(Cl)cc2)cc1 (stereo not given) | 70
CC(=O)OCc1cc(=O)n(C)c2c3c4c(cc12)c(C)cc(=O)n4CO3 | 83
COc1ccc(C2=C/C(=C3\C(=O)Oc4ccccc4C3=O)SS2)cc1 | 2
CC1=C(C)C(=O)C(C(C)(C)CC(=O)n2cc(F)c(=O)[nH]c2=O)=C(C)C1=O | 56
CN1CCN=C1c1ccc(NC(=O)Nc2ccc(NC(=O)Nc3ccc(C4=NCCN4C)cc3)cc2)cc1 | -15

Record `C=C(CN(C)C)C(=O)c1ccccc1` . Reported growth inhibition: 8

Record `CCOC(=O)c1[nH]n(-c2ccccc2)c(=O)c1/C=N/C(=S)N=Nc1c(O)[nH]c2ccccc12` . Reported growth inhibition: -7

Record CC(C)N(C(=O)C12C3C4C1C1C2C3C41I)C(C)C (stereo not given) . Reported growth inhibition: 44

Record `CN(C)C=Nc1ccc2nonc2c1` . Reported growth inhibition: 12

Record `CCCCc1c2c(nc3c1CCc1cc4cc5c(nc4nc1-3)-c1nc3c(c(CCCC)c1CC5)CCCC3=O)C(=O)CCC2` . Reported growth inhibition: 54

Record `C/C(=N\NC(=S)N1CCN(C2CCCCCC2)CC1)c1ccccn1` . Reported growth inhibition: -4

----------
test: NCI Yeast Anticancer Drug Screen. Data for the rad50 strain (AID 155);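 also: 0% = growth of vehicle-only cultures of the same strain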; conditions: S. cerevisiae rad50 strain growth inhibition; at 50.0 µM; active compounds read high
This is part of a sample that, as a whole, favours compounds with a hit. Of some 79,000 tested, about 15% had one in any assay.
Use fulfilled when the recorded growth inhibition is no lower than 40%; use not fulfilled when it is lower.

Record excerpt, results attached:
CCC1=C(C)/C(=C/c2[nH]c(C(Br)Br)c(CC)c2C)N=C1C(Br)Br | not fulfilled
CC(=O)N(N)c1ccccc1 | fulfilled

growth inhibition >= 40% for `Oc1ccc(Br)cc1C=Nc1c(NC2CCCCC2)oc2ccc(Br)cc12` ?
not fulfilled

growth inhibition >= 40% for `Cc1cccc(NC(=O)c2cc3cc(N=Nc4ccccc4Cl)ccc3oc2=O)c1` ?
fulfilled

growth inhibition >= 40% for `O=C(O)C1C(c2ccccc2)=C1c1ccccc1` ?
fulfilled

growth inhibition >= 40% for `CN1/C(=C/C=C/C(I)=C/C=C/C2=[N+](C)c3ccccc3C2(C)C)C(C)(C)c2ccccc21` ?
fulfilled

growth inhibition >= 40% for `CCCCCCCCCCCC(=O)OCCOC(=O)CCCCCCCCCCC` ?
not fulfilled

growth inhibition >= 40% for `CCN(CC)CCOc1ccc(/C(C#N)=C/c2ccc3ccccc3c2)cc1` ?
fulfilled

growth inhibition >= 40% for CC/C(=C1\C=CC(=O)S1)C(CC)c1ccc(OC(C)=O)cc1 (configuration not stated) ?
fulfilled

growth inhibition >= 40% for COC(=O)C1(NC(=O)C(CC(=O)OCc2ccccc2)NC(=O)OCc2ccccc2)CCCCCC1 (configuration not stated) ?
fulfilled

growth inhibition >= 40% for `CC(=O)/C=N/Nc1ccccc1` ?
fulfilled

growth inhibition >= 40% for `Cc1cccc(C[N+](C)(C)CCCO)c1C` ?
not fulfilled

growth inhibition >= 40% for `O=C(N/C(=C\c1ccccc1)C(=O)N1CCN(c2ccccc2)CC1)c1ccccc1` ?
fulfilled

growth inhibition >= 40% for CC(CCCN(C)Cc1ccccc1)Nc1ccnc2cc(Cl)ccc12 (configuration not stated) ?
fulfilled

----------
Measured growth inhibition by item
experiment: NCI Yeast Anticancer Drug Screen. Data for the bub3 strain (AID 167); conditions: S. cerevisiae bub3 mutant strain, at 5.0 µM (retest, dose inferred, filed as 0.5), active compounds read high
This is part of a sample that, as a whole, favours compounds with a hit. Of some 79,000 tested, about 15% had one in any assay. Calls of active or inactive are those of the source. Rule as the data show it: active = growth inhibition above about 70%; inactive = the rest.

A selection of reference data follows.
O=c1ccnc(Sc2ccc([N+](=O)[O-])cc2[N+](=O)[O-])[nH]1 | -1% (inactive)
COc1ccc2c(C(=O)c3ccccc3)c3[n+](cc2c1OC)CCc1cc2c(cc1-3)OCO2 | -4% (inactive)
C=C1CC/C=C(/C(=O)O)CC[C@H]2[C@@H]1CC2(C)C | 0% (inactive)
CCN(CC)CCC(=O)/C=C/c1ccc(C)cc1 | 7% (inactive)
O=C1OC(c2ccccc2)(c2ccccc2)CC1CN1CCOCC1 (stereo not drawn) | 1% (inactive)

Record `O=C1c2cc(Br)ccc2NC1(c1c[nH]c2ccccc12)c1c[nH]c2ccccc12` . Reported growth inhibition: 95% (active)

----------
Measured growth inhibition by item
assay: NCI Yeast Anticancer Drug Screen. Data for the sgs1 mgt1 strain (AID 161);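 also: 0% = growth of cultures given vehicle only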; settings: S. cerevisiae sgs1 mgt1 strain, at 50.0 µM (retest, dose inferred, filed as 5.0), active compounds read high
This is part of a sample that, as a whole, favours compounds with a hit. Of some 79,000 tested, about 15% had one in any assay.
The answer is to be given in %; state only the numeric part.

A selection of reference data follows.
Cc1ccccc1N1C(=O)c2ccccc2C1=O | 7
CCN(CC)C(=S)N/N=C/c1cc(OC)ccc1O | 95
O=C1C=CC(=O)C2C1Cc1ccccc1C2c1ccccc1 (stereo not drawn) | 98
CC(=O)OC1CCCc2c1nc1ccccc1[n+]2[O-] (stereo not drawn) | 1

Record `CC(=O)c1ccc([N+](=O)[O-])o1` . Reported growth inhibition: 61

Record `O=C(CBr)N1c2ccccc2S(=O)(=O)c2ccc3ccccc3c21` . Reported growth inhibition: 98

Record C=C1C(=O)O[C@@H]2C[C@@]3(C)CCC[C@H](C)C3=C[C@H]12 (tested in a mixture with another compound) . Reported growth inhibition: 97

Record `Oc1ccc(N=Nc2ccccc2)cc1` . Reported growth inhibition: 64

Record CCCC1=C(c2ccccc2)C(O)(c2ccccc2)C(CCC)C1=O (stereo not drawn) . Reported growth inhibition: 37

Record `CC(=O)N1c2ccccc2Sc2ccc3ccc(C(=O)CCl)cc3c21` . Reported growth inhibition: 98

Record `COc1ccc(-c2csc(C)n2)cc1OC` . Reported growth inhibition: 7

Record `CCCCCCCSCc1nc2ccccc2c(C)[n+]1[O-]` . Reported growth inhibition: 98

Record O=C1OC(C2OC(=O)C(=O)C2C(=O)c2ccc([N+](=O)[O-])cc2)C(C(=O)c2ccc([N+](=O)[O-])cc2)C1=O (stereo not drawn) . Reported growth inhibition: 86

Record `COC(=O)c1ccc(NCC2=C(Br)C(=O)C=CC2=O)cc1Cl` . Reported growth inhibition: 98

Record `Cc1cnc(C#N)c(C#N)n1` . Reported growth inhibition: 7

Record `CC(C)COP(=O)(OCC(C)C)C(NS(=O)(=O)c1ccccc1)(C(F)(F)F)C(F)(F)F` . Reported growth inhibition: -5

Record `c1cnc2ccc3c4cccnc4ccc3c2c1` . Reported growth inhibition: 81

Record `CC1=C(Br)S(=O)(=O)N(c2ccccc2)C(CBr)=C1Br` . Reported growth inhibition: 99

Record `CCc1ccc2ccc3ccc(CC)nc3c2n1` . Reported growth inhibition: 96

----------
experiment: NCI Yeast Anticancer Drug Screen. Data for the cln2 rad14 strain (AID 165);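 also: 0% = growth equal to vehicle treated cultures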; details: S. cerevisiae cln2 rad14 strain, at 50.0 µM
Compounds without any hit were thinned out: in the full panel of roughly 79,000, 15% have a hit. Calls of active or inactive are those of the source. Cut-off read from the data, not from the text of the source: active = growth inhibition above about 70%; inactive = the rest.
The reply should name one outcome from active, inactive

Record excerpt, results attached:
Nc1nc(-c2ccccn2)cc2cc(Cl)ccc12 | inactive
COC(=Nc1ccccc1)SSC(C)C | inactive
Cc1ccc2[nH]c3c(c2c1)CCC/C3=N/N=C(N)N | active
Cc1ccc(-c2oc(C=Nc3ccccc3)c([N+](=O)[O-])c2-c2ccc(C)cc2)cc1 | inactive
CCOC(=O)c1sc2[n+](c1C)C(=O)/C(=C/c1ccc([N+](=O)[O-])cc1)S2 | active
Oc1ccc(N=Nc2ccccc2)cc1 | active
CCOC(=O)C(C#N)c1cc(O)c(C(C#N)C(=O)OCC)cc1O (configuration not stated) | inactive
CCCCC(=S)N1CCN(c2ccccc2)CC1 | inactive

Hi, sorry to bother you, what did the test record for CC(C)CCCC(=O)CCCCCCC(=O)CCN(O)C(=O)C(N)CO (configuration not stated) ?
active

Hi, sorry to bother you, what did the test record for `CCOC(=O)c1ccc(-c2cccs2)n1C` ?
inactive

Hi, sorry to bother you, what did the test record for COc1cccc2c1C(=O)c1c(O)c3c(c(O)c1C2=O)C[C@@](O)(C(C)=O)C[C@@H]3OC1CC([N+]([O-])(Cc2ccccc2)Cc2ccccc2)C(O)C(C)O1 (some centres not stated) ?
inactive

Hi, sorry to bother you, what did the test record for `O=[N+]([O-])c1cc(Br)cc(Br)c1O` ?
active
